# assay remarks: Pharmacokinetics in mouse
# Assay type: in vivo, mice
# condition: female, CD-1, mouse, plasma, ip, 50 mg/kg
endpoint name: AUC (µM·h)
One number for each entry, in µM·h.

Query COc1ccc(C[C@@H](C(=O)NO)n2cc(CNS(=O)(=O)c3ccc(-c4ccccc4)s3)nn2)cc1 yields AUC of 12.9

* * *

# assay remarks: Microsomal stability
# Format: in vitro ADME, human
# condition: both, human, liver microsomes, pH 7.4
endpoint name: half-life at 1 µM

{"record smiles": "COc1ccc(C[C@@H](C(=O)NO)n2cc(CNS(=O)(=O)c3ccc(-c4ccccn4)s3)nn2)cc1", "endpoint name": "half-life at 1 µM", "data value": "> 40 min"}

# ---- query compound ----
Query COc1ccc(C[C@@H](C(=O)NO)n2cc(CNS(=O)(=O)c3ccc(-c4ccccc4)s3)nn2)cc1 yields half-life at 1 µM of > 40 min

* * *

# assay remarks: LogD octanol/PBS pH 7.4
# Format: physicochemical
endpoint name: logD at 2 h
One number for each entry.

Check out these entries, answers already filled in.
{"record smiles": "COc1ccc(C[C@@H](C(=O)NO)n2cc(CNS(=O)(=O)c3ccc(-c4ccccc4)s3)nn2)cc1", "logD at 2 h": 2.99}
{"record smiles": "COc1ccc(C[C@@H](C(=O)NO)n2cc(CNS(=O)(=O)c3ccc(-c4ccccn4)s3)nn2)cc1", "logD at 2 h": 1.81}

# ---- query molecule ----
Query O=C(NO)[C@H](Cc1ccc(Oc2ccccc2)cc1)n1cc(CNS(=O)(=O)c2ccc(-c3ccccn3)s2)nn1 yields logD at 2 h of 4.11
